- Assay Comment: Mycobacterium tuberculosis growth inhibition, primary screen (AID 1259343)
- Test Context: at 10 µM
The campaign covered roughly 6,200 compounds. About 2,900 (47%) were called active. No stated cut-off is given here; in the data, active means inhibition above about 50%; inactive means the rest. So high a share suggests a set chosen from earlier hits. The list shows a part of the results.
Outcome codes: active, inactive

1) CCc1ccc(CNC(=O)c2cc(F)ccc2Br)s1	active
2) Oc1ccccc1OCc1nc2ccccc2s1	active
3) Oc1c(Cl)cc(Cl)cc1C=NNc1nc2ccccc2s1	active
4) CN(C)C(=O)CSc1nnc(-c2ccc(Cl)cc2)n1C	inactive
5) O=C(c1ccccc1C(F)(F)F)N1CCC(c2nc(-c3ccc(Cl)cc3F)no2)CC1	inactive
6) O=C(COc1ccc(Cl)cc1)N1CCC(c2nc(-c3ccc(Cl)cc3F)no2)CC1	active
7) COc1ccc(C(C)O)cc1CSc1nc2ccccc2s1 (stereo unspecified)	inactive
8) O=C(c1c(F)cccc1Cl)N1CCC(c2nc(-c3ccc(F)c(F)c3)no2)CC1	active
9) CCOC(=O)Cn1c(=NC(=O)c2cc(C)no2)sc2cc(Cl)ccc21	inactive
10) CCOC(=O)CC(=O)N1CCC(c2nc(-c3ccc(Cl)cc3)no2)CC1	active
11) Fc1ccc2c(c1)C(=NNc1nc3ccccc3s1)CCS2	inactive

---

- Assay Comment: Mycobacterium tuberculosis growth inhibition, primary screen (AID 1259343)
- Test Context: at 10 µM
The campaign covered roughly 6,200 compounds. About 2,900 (47%) were called active. Cut-off read from the data, not from the text of the source: active = inhibition above about 50%; inactive = the rest. The set was probably picked from earlier hits. This is one part of the list.
Outcome codes: true (1) = active, false (0) = inactive

1) CN(C)c1ccc(-c2nc(-c3cc4c5c(c3)CC(=O)N5CCC4)cs2)cc1	false (0)
2) O=C(O)COc1c(I)cc(Cl)c2cccnc12	true (1)
3) CC(NC(=O)c1ccc2ncsc2c1)C1CC2CCC1C2 (stereo unspecified)	false (0)
4) CCC(=NNC(=O)c1ccc(F)cc1)c1cc(Cl)cc(Cl)c1O	true (1)
5) CC(=NNC(=O)c1cc(-c2cccc3ccccc23)n[nH]1)c1ccccc1O	false (0)
6) CC(NC(=O)NC(=O)N(C1CCCCC1)S(C)(=O)=O)C1CC2CCC1C2 (stereo unspecified)	true (1)

---

- Assay Comment: Mycobacterium tuberculosis growth inhibition, primary screen (AID 1259343)
- Test Context: at 10 µM
Out of some 6,200 compounds screened, about 2,900 (47%) were called active. Cut-off read from the data, not from the text of the source: active = inhibition above about 50%; inactive = the rest. So high a share suggests a set chosen from earlier hits. Some of the results follow.
Outcome codes: YES for active, NO for inactive

1) CCc1c(C)nc(-n2nc(C)cc2NC(=O)c2ccc(OC)cc2)[nH]c1=O	YES
2) CCOc1cc(C(=O)Nc2cc(C)nn2-c2nc(C)c(CC)c(=O)[nH]2)cc(OCC)c1OCC	NO
3) CCc1c(C)nc(-n2nc(C)cc2NC(=O)c2ccc(C(F)(F)F)cc2)[nH]c1=O	YES
4) CCc1c(C)nc(-n2nc(C)cc2NC(=O)c2cccc(OC)c2)[nH]c1=O	YES
5) CN(C(=O)CSc1nc2sc3c(c2c(=O)[nH]1)CCCC3)C1CCCCC1	YES

---

Known inhibition of a selection of compounds
- Assay Comment: Mycobacterium tuberculosis growth inhibition, primary screen (AID 1259343)
- Test Context: at 10 µM, active compounds read high
Among all 6,200 compounds or so, about 2,900 (47%) were called active. The set was probably picked from earlier hits. The list shows a part of the results.
Measured Metric: inhibition (%)

1. CCC(C)n1nccc1NC(=O)c1n[nH]c2ccccc2c1=O (stereo not given)	3.7
2. CCCC1CCCN(C(=O)c2cc3ccccc3cc2O)CC1 (stereo not given)	23.5
3. COc1coc(CN2CCCC(CCc3ccccc3C)C2)cc1=O (stereo not given)	33.7
4. Cc1cc(C)nc(NN=Cc2cc(Br)cc(Br)c2O)n1	102
5. CC(C)n1nccc1-c1nnc(NC(=O)c2ccccc2)o1	100
6. O=C1CCCC(=NNC(=S)NC2CCCCC2)C1	55.2
7. O=C(c1cnn2ccccc12)N1CCCC(CCc2cccc(C(F)(F)F)c2)C1 (stereo not given)	93.1
8. O=C(Nc1ccn(-c2ccccc2)n1)C1CCCC1	21.5
9. NC(N)=NN=Cc1ccc(-c2ccccc2)cc1	38.6
10. S=c1oc(-c2sc3ccccc3c2Cl)nn1CN1CCOCC1	1.82
11. CN(Cc1ccco1)C(=O)NCCc1cccc(Cl)c1	49.7
12. CC(C)Cc1nnc(C(C)Sc2nc3ncc(Cl)cc3[nH]2)o1 (stereo not given)	-8.41
13. CC(C)c1ncc(CN2CCCC(CCc3cccc(C(F)(F)F)c3)C2)cn1 (stereo not given)	93.2
14. CC(NS(=O)(=O)c1ccccc1C#N)c1ccc(-n2ccnc2)cc1 (stereo not given)	-48.9
15. C=CCSc1nnc(-c2sc3ccccc3c2Cl)o1	66.8
16. O=C1CC(c2ccc(O)cc2)Oc2ccccc21 (stereo not given)	72.9
17. Cc1cc(C(=O)Nc2ccn(-c3ccccc3)n2)c(C)o1	59.6
18. CN(C)c1ccc(CN(C)S(=O)(=O)Cc2ccccc2)cc1	30.6
19. CCCc1nc2oc3ccccc3c(=O)c2c(=O)n1-c1ccc(C)cc1	-28
20. NC(N)=NN=CC(Cl)=Cc1ccccc1	85.8
21. CN(Cc1ccccc1)C(=O)NCCc1ccc2c(c1)CCO2	66.7
22. C(=Cc1ccccc1)CSc1nnc(-c2c[nH]c3ccccc23)o1	19.9
23. Cc1ccc(-n2c(Cl)c(Cl)nc(Cl)c2=O)cc1	102
24. COc1ccc(-c2nc(Nc3ccc(F)cc3)c3ccccc3n2)cc1	26.9
25. Clc1cccc(COc2ccc3c(C4CC4)noc3n2)c1	76.8
